molecular target: protein-protein interaction between Kras and SOS1 (biotin-tagged human Kras loaded with GDP, His-tagged human SOS1) (Homo sapiens (Human), UniProt P01116, G12D); assay: Protein-protein interaction inhibition between Kras and SOS1 (KrasG12D-SOS PPI) using AlphaScreen; assay type: biochemical; conditions: AlphaScreen; biotin-tagged human Kras loaded with GDP, His-tagged human SOS1; read-out: KRAS G12D-SOS PPI IC50
Numbered stars: 1 amine (or outer) side, 2 acyl side, 3 side chain; on linkers, the order of the positions; unused ones are H or OH. Bridge positions count the residues as written; N and C are the ends. Square brackets hold non-standard residues; d marks the D form. Peptide text beside a SMILES is read from it. * marks the point of attachment. hPhe(3-Cl-4-CF3) = N[C@@H](CCc1ccc(C(F)(F)F)c(Cl)c1)C(=O)O; hPhe(3-F,4-CF3) = N[C@@H](CCc1ccc(C(F)(F)F)c(F)c1)C(=O)O; NMePhe(4-CF3) = CN[C@@H](Cc1ccc(C(F)(F)F)cc1)C(=O)O; NMePhe(4-Me) = CN[C@@H](Cc1ccc(C)cc1)C(=O)O; NMedβ3hAla = C[C@H](CC(=O)[*:2])N(C)[*:1]; NMeGly(cPent) = CN[C@H](C(=O)O)C1CCCC1; NMe3Pal = CN[C@@H](Cc1cccnc1)C(=O)O; NMeCha = CN[C@@H](CC1CCCCC1)C(=O)O; NEtLeu = CCN[C@@H](CC(C)C)C(=O)O; NMeChg = CN[C@H](C(=O)O)C1CCCCC1; NMeI = CC[C@H](C)[C@H](NC)C(=O)O; NMeD = CN[C@@H](CC(=O)O)C(=O)O; NMeL = CN[C@@H](CC(C)C)C(=O)O; Morpholide = C1CN(*)CCO1; NMeA = CN[C@@H](C)C(=O)O; Pyrrolidide = C1CCN(*)C1; Ac5c = NC1(C(=O)O)CCCC1; Aze = O=C(O)[C@@H]1CCN1; Sar = CNCC(=O)O
Quantity Kind: pIC50
// pIC50 here means minus log10 of the molar concentration (mol/L)

Entry under review: CC[C@H](C)[C@@H]1NC(=O)[C@H](CC(C)C)N(C)C(=O)C[C@@H](C(=O)N2CCOCC2)N(C)C(=O)[C@H](C2CCCC2)N(C)C(=O)C2(CCCC2)NC(=O)[C@@H]2CCCN2C(=O)[C@H](CCc2ccc(C(F)(F)F)c(F)c2)NC(=O)CN(C)C(=O)[C@H](Cc2ccc(C)cc2)N(C)C(=O)[C@@H]2CCN2C(=O)[C@H](C)N(C)C1=O [Compound 938] ([NMeL]I[NMeA][Aze][NMePhe(4-Me)][Sar][hPhe(3-F,4-CF3)]P[Ac5c][NMeGly(cPent)][NMeD]-Morpholide; lactam N-11) . Reported pIC50?
9.16

Note, next up: CC[C@H](C)[C@@H]1NC(=O)[C@H](CC(C)C)N(C)C(=O)C[C@@H](C)N(C)C(=O)[C@H](C2CCCC2)N(C)C(=O)C2(CCCC2)NC(=O)[C@@H]2CCCN2C(=O)[C@H](CCc2ccc(C(F)(F)F)c(F)c2)NC(=O)CN(C)C(=O)[C@H](C2CCCC2)N(C)C(=O)[C@@H]2CCN2C(=O)[C@H](C)N(C)C1=O [Compound 386] (cyclo([Ac5c][NMeGly(cPent)][NMedβ3hAla][NMeL]I[NMeA][Aze][NMeGly(cPent)][Sar][hPhe(3-F,4-CF3)]P))
8.00

Note, next up: CC[C@H](C)[C@@H]1NC(=O)[C@H](C)N(C)C(=O)C[C@@H](C(=O)N2CCOCC2)N(C)C(=O)[C@H](C2CCCCC2)N(C)C(=O)C2(CCCC2)NC(=O)[C@H](Cc2cccnc2)N(C)C(=O)[C@H](CCc2ccc(C(F)(F)F)c(Cl)c2)NC(=O)CN(C)C(=O)[C@H](CC2CCCCC2)N(C)C(=O)CN(C)C(=O)CN(C)C1=O [Compound 1718] ([NMeA]I[Sar][Sar][NMeCha][Sar][hPhe(3-Cl-4-CF3)][NMe3Pal][Ac5c][NMeChg][NMeD]-Morpholide; lactam N-11)
9.10

Note, next up: CC[C@H](C)[C@@H]1NC(=O)[C@H](CC(C)C)N(CC)C(=O)C[C@@H](C(=O)N2CCCC2)N(C)C(=O)[C@H]([C@@H](C)CC)N(C)C(=O)C2(CCCC2)NC(=O)[C@@H]2CCCN2C(=O)[C@H](CCc2ccc(C(F)(F)F)c(Cl)c2)NC(=O)CN(C)C(=O)[C@H](Cc2ccc(C(F)(F)F)cc2)N(C)C(=O)[C@@H]2CCN2C(=O)[C@H](C)N(C)C1=O [Compound 1190] ([NEtLeu]I[NMeA][Aze][NMePhe(4-CF3)][Sar][hPhe(3-Cl-4-CF3)]P[Ac5c][NMeI][NMeD]-Pyrrolidide; lactam N-11)
9.08

----------
molecular target: protein-protein interaction between Kras and SOS1 (biotin-tagged human Kras loaded with GDP, His-tagged human SOS1) (Homo sapiens (Human), UniProt P01116, G12D); test: Protein-protein interaction inhibition between Kras and SOS1 (KrasG12D-SOS PPI) using AlphaScreen; type: biochemical; conditions: AlphaScreen; biotin-tagged human Kras loaded with GDP, His-tagged human SOS1; read-out: KRAS G12D-SOS PPI IC50;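 further: kras produced in E. coli, Ni-coupled donor beads and streptavidin acceptor beads, excitation 680 nm with emission detected at 520–620 nm via singlet oxygen transfer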
Numbered stars: 1 amine (or outer) side, 2 acyl side, 3 side chain; on linkers, the order of the positions; unused ones are H or OH. Bridge positions count the residues as written; N and C are the ends. Square brackets hold non-standard residues; d marks the D form. Peptide text beside a SMILES is read from it. * marks the point of attachment. hPhe(3-Cl-4-CF3) = N[C@@H](CCc1ccc(C(F)(F)F)c(Cl)c1)C(=O)O; NEtPhe(4-CF3) = CCN[C@@H](Cc1ccc(C(F)(F)F)cc1)C(=O)O; NMePhe(4-CF3) = CN[C@@H](Cc1ccc(C(F)(F)F)cc1)C(=O)O; NMePhe(4-Me) = CN[C@@H](Cc1ccc(C)cc1)C(=O)O; NMePhe(2-Cl) = CN[C@@H](Cc1ccccc1Cl)C(=O)O; NMedβ3hAla = C[C@H](CC(=O)[*:2])N(C)[*:1]; NMeGly(cPent) = CN[C@H](C(=O)O)C1CCCC1; Phe(3-I) = N[C@@H](Cc1cccc(I)c1)C(=O)O; NMeCha = CN[C@@H](CC1CCCCC1)C(=O)O; Hyp = O=C(O)[C@@H]1C[C@@H](O)CN1; NMeChg = CN[C@H](C(=O)O)C1CCCCC1; NMeF = CN[C@@H](Cc1ccccc1)C(=O)O; NMeI = CC[C@H](C)[C@H](NC)C(=O)O; N(CH2CH2)2CF2 = FC1(F)CCN(*)CC1; NMeD = CN[C@@H](CC(=O)O)C(=O)O; NMeL = CN[C@@H](CC(C)C)C(=O)O; NMeV = CN[C@H](C(=O)O)C(C)C; d(β3hA) = C[C@@H](N)CC(=O)O; NMeS = CN[C@@H](CO)C(=O)O; NMeA = CN[C@@H](C)C(=O)O; NMeAib = CNC(C)(C)C(=O)O; Piperidide = C1CCN(*)CC1; dNMeA = CN[C@H](C)C(=O)O; Ac5c = NC1(C(=O)O)CCCC1; Aze = O=C(O)[C@@H]1CCN1; Ac4c = NC1(C(=O)O)CCC1; Sar = CNCC(=O)O; Propyl = CCC*
# if measured IC50 < 50 nM: MET  # else: NOT MET

Record CC[C@H](C)[C@@H]1NC(=O)[C@H]([C@@H](C)CC)N(C)C(=O)C[C@@H](C(=O)N2CCCCC2)N(C)C(=O)[C@H](C(C)C)N(C)C(=O)C2(CCCC2)NC(=O)[C@@H]2CCCN2C(=O)[C@H](CCc2ccc(C(F)(F)F)c(Cl)c2)NC(=O)CN(C)C(=O)[C@H](CC2CCCCC2)N(C)C(=O)[C@@H]2CCN2C(=O)[C@H](C)N(C)C1=O [Compound 1863] ([NMeI]I[NMeA][Aze][NMeCha][Sar][hPhe(3-Cl-4-CF3)]P[Ac5c][NMeV][NMeD]-Piperidide; lactam N-11) : is its IC50 strictly below 50 nM?
MET

Note, next up: CC[C@H](C)[C@@H]1NC(=O)[C@H](CC(C)C)N(C)C(=O)C[C@@H](C(=O)N2CCC(F)(F)CC2)N(C)C(=O)[C@H](CC(C)C)NC(=O)C(C)(C)N(C)C(=O)[C@H](Cc2ccc(OC)cc2)NC(=O)[C@H](Cc2cccc(I)c2)NC(=O)CN(C)C(=O)[C@H](Cc2ccc(C)cc2)N(C)C(=O)CN(C)C(=O)CN(C)C1=O [Compound 2101] ([NMeL]I[Sar][Sar][NMePhe(4-Me)][Sar][Phe(3-I)]Y(Me)[NMeAib]L[NMeD]-{N(CH2CH2)2CF2}; lactam N-11)
NOT MET

Note, next up: CCCOC[C@H]1C(=O)N(C)CC(=O)N[C@@H](CCc2ccc(C(F)(F)F)c(Cl)c2)C(=O)N2CCC[C@H]2C(=O)NC2(CCCC2)C(=O)N(C)[C@@H](C(C)C)C(=O)N(C)[C@H](C(=O)N2CCCCC2)CC(=O)N(C)[C@@H](CC(C)C)C(=O)N[C@@H]([C@@H](C)CC)C(=O)N(C)[C@@H](C)C(=O)N2CC[C@H]2C(=O)N1C [Compound 1646] ([NMeL]I[NMeA][Aze][NMeS](Propyl)[Sar][hPhe(3-Cl-4-CF3)]P[Ac5c][NMeV][NMeD]-Piperidide; lactam N-11)
MET

Note, next up: CC[C@H](C)[C@@H]1NC(=O)[C@H](CC(C)C)N(C)C(=O)C[C@@H](C)N(C)C(=O)[C@H](CC(C)C)NC(=O)C(C)(C)N(C)C(=O)[C@H](CC(C)C)NC(=O)[C@H](CCc2ccc(C(F)(F)F)c(Cl)c2)NC(=O)[C@@H](C)N(C)C(=O)[C@H](CC2CCCCC2)N(C)C(=O)CN(C)C(=O)CN(C)C1=O [Compound 1389] (cyclo(I[Sar][Sar][NMeCha][dNMeA][hPhe(3-Cl-4-CF3)]L[NMeAib]L[NMedβ3hAla][NMeL]))
NOT MET

Note, next up: CCO[C@@H]1C[C@H]2C(=O)NC3(CCC3)C(=O)N(C)[C@@H](C3CCCCC3)C(=O)N(C)[C@H](C)CC(=O)N(C)[C@@H](CC(C)C)C(=O)N[C@@H]([C@@H](C)CC)C(=O)N[C@@H](C)C(=O)N3CC[C@H]3C(=O)N(CC)[C@@H](Cc3ccc(C(F)(F)F)cc3)C(=O)N(C)CC(=O)N[C@@H](CCc3ccc(C(F)(F)F)c(Cl)c3)C(=O)N2C1 [Compound 743] (cyclo(A[Aze][NEtPhe(4-CF3)][Sar][hPhe(3-Cl-4-CF3)][Hyp](Et)[Ac4c][NMeChg][NMedβ3hAla][NMeL]I))
MET

Note, next up: CC[C@H](C)[C@@H]1NC(=O)[C@H](CC(C)C)N(C)C(=O)C[C@@H](C)NC(=O)[C@H](C2CCCC2)N(C)C(=O)C2(CCCC2)NC(=O)[C@@H]2CCCN2C(=O)[C@H](CCc2ccc(C(F)(F)F)c(Cl)c2)NC(=O)[C@@H](C)N(C)C(=O)[C@H](Cc2ccc(C(F)(F)F)cc2)N(C)C(=O)[C@@H]2CCN2C(=O)[C@H](C)N(C)C1=O [Compound 1482] (cyclo([Ac5c][NMeGly(cPent)][d(β3hA)][NMeL]I[NMeA][Aze][NMePhe(4-CF3)][dNMeA][hPhe(3-Cl-4-CF3)]P))
NOT MET

Note, next up: CC[C@H](C)[C@@H]1NC(=O)[C@H](C)N(C)C(=O)C[C@@H](C)NC(=O)[C@H](C2CCCC2)N(C)C(=O)C2(CCCC2)NC(=O)[C@@H]2CCCN2C(=O)[C@H](CCc2ccc(C(F)(F)F)c(Cl)c2)NC(=O)[C@@H](C)N(C)C(=O)[C@H](Cc2ccccc2Cl)N(C)C(=O)[C@@H]2CCN2C(=O)[C@H](C)N(C)C1=O [Compound 464] (cyclo([Ac5c][NMeGly(cPent)][d(β3hA)][NMeA]I[NMeA][Aze][NMePhe(2-Cl)][dNMeA][hPhe(3-Cl-4-CF3)]P))
NOT MET

Note, next up: CC[C@H](C)[C@@H]1NC(=O)[C@H](CC(C)C)N(C)C(=O)C[C@@H](C(=O)N2CCCCC2)N(C)C(=O)[C@H](C2CCCCC2)N(C)C(=O)C2(CCCC2)NC(=O)[C@@H]2C[C@@H](O)CN2C(=O)[C@H](CCc2ccc(C(F)(F)F)c(Cl)c2)NC(=O)CN(C)C(=O)[C@H](CC2CCCCC2)N(C)C(=O)CN(C)C(=O)CN(C)C1=O [Compound 1376] ([NMeL]I[Sar][Sar][NMeCha][Sar][hPhe(3-Cl-4-CF3)][Hyp][Ac5c][NMeChg][NMeD]-Piperidide; lactam N-11)
MET

Note, next up: CC[C@H](C)[C@@H]1NC(=O)[C@H](C)N(C)C(=O)C[C@@H](C)NC(=O)[C@H](C(C)C)N(C)C(=O)C2(CCCC2)NC(=O)[C@@H]2CCCN2C(=O)[C@H](CCc2ccc(C(F)(F)F)c(Cl)c2)NC(=O)[C@@H](C)N(C)C(=O)[C@H](Cc2ccccc2)N(C)C(=O)[C@@H]2CCCN2C(=O)CN(C)C1=O [Compound 1783] (cyclo([Ac5c][NMeV][d(β3hA)][NMeA]I[Sar]P[NMeF][dNMeA][hPhe(3-Cl-4-CF3)]P))
NOT MET
